System: SK-MEL-2 melanoma
Assay: NCI-60 one-dose screen, 48 h
Conditions: 10 µM unless noted
Compounds without any hit were thinned out: in the full panel of roughly 83,000, 20% have a hit. Active and inactive are the calls of the source. The calls were made as follows: active = growth percent below 10; inactive = the rest.
// allowed return values: active, inactive

See these solved cases before continuing.
C[C@]12CC[C@H](O)CC1=CC[C@@H]1[C@@H]2CC[C@]2(C)C(=O)CC[C@@H]12    inactive
COC1CC(CC2CCC(C)C(C(C)C(=O)O)O2)OC2(OC(C)(C3CCC(C)(C4OC(C5OC(O)(CO)C(C)CC5C)CC4C)O3)CC2C)C1C (stereo not given)    active
NCCc1ccc(OCc2ccccc2)c(OCc2ccccc2)c1    inactive
CC[n+]1c(-c2ccccc2)c2cc(N)ccc2c2ccc(N)cc21    active
CC[C@](O)(C(=O)O)c1cc2n(c(=O)c1CO)Cc1cc3ccccc3nc1-2    active

// query Recorded test outcome, item CCOC(=O)C(NC(=O)C(Cc1ccc(N(CCCl)CCCl)cc1)NC(C)=O)C(C)C (stereo not given)
// result inactive

// query And what about the molecule CCC1(O)CC(OC2CC(N(C)C)C(OC3CC4OC5CC(=O)C(C)OC5OC4C(C)O3)C(C)O2)c2c(cc3c(c2O)C(=O)c2c(O)ccc(O)c2C3=O)C1C(=O)OC (stereo not given) ?
// result active

// query And what about the molecule CN1CCN(c2ccc([N+](=O)[O-])c3no[n+]([O-])c23)CC1 ?
// result active

// query And what about the molecule CO[C@H](/C(C)=C/C=C/C(C)=C/c1coc(C)n1)[C@H](C)[C@H]1C[C@@H](O)[C@@]2(C)O[C@H]2/C=C/[C@@H](C)[C@@H]2C[C@@H](CC(=O)O2)C[C@H]2O[C@@H]2C(=O)O1 ?
// result inactive

// query And what about the molecule Cc1c(N)nc([C@H](CC(N)=O)NC[C@H](N)C(N)=O)nc1C(=O)N[C@H](C(=O)N[C@H](C)[C@@H](O)[C@H](C)C(=O)N[C@H](C(=O)NCCc1nc(-c2nc(C(=O)NCCC[S+](C)C)cs2)cs1)[C@@H](C)O)C(OC1OC(CO)C(O)C(O)C1OC1OC(CO)C(O)C(OC(N)=O)C1O)c1cnc[nH]1 (stereo not given in full) ?
// result inactive

// query And what about the molecule CC[C@@]1(O)C[C@H](OC2CC(N(C)C)C(O)C(C)O2)c2c(O)c3c(c(O)c2[C@H]1OC1CC(N(C)C)C(O)C(C)O1)C(=O)c1cccc(O)c1C3=O (stereo not given in full) ?
// result active

// query And what about the molecule COc1ccc(OC)c(/C=C/[N+](=O)[O-])c1 ?
// result active

// query And what about the molecule CC[C@@]1(O)C(=O)OCc2c1cc1n(c2=O)Cc2cc3ccccc3nc2-1 ?
// result active

// query And what about the molecule Oc1cc[c]([Hg][Cl])cc1 ?
// result inactive

// query And what about the molecule Cc1cc(N=Nc2ccccc2C)ccc1N ?
// result inactive
